Give measured melting point for each item. Keep answers brief.

Exercise: Endpoint output: melting point of CC[C@H]1c2ccc(C#N)n2-c2cc(F)c(F)cc2N1S(=O)(=O)c1ccc(O)c(C)c1 . Value?
Solution: 201 to 203 °C

Exercise: Then this compound: CN(O)C(=O)Nc1c(C(=O)c2ccccc2)[nH]c2cc(Cl)ccc12
Solution: 208 to 214 °C

Exercise: Then this compound: Cc1ccc(S(=O)(=O)OCC2CCN(C(c3ccccc3)(c3ccccc3)c3ccccc3)CC2)cc1
Solution: 192 °C

Exercise: Then this compound: Cc1cc2c(cc1C(=O)C(C)CC(=O)O)NC(=O)CO2 (centres undefined)
Solution: 170 to 172 °C

Exercise: Then this compound: O=C(Nc1ccc(-n2nc(-c3ccoc3)cc2OC(F)F)cc1)c1ccncc1F
Solution: 172 to 174 °C

Exercise: Then this compound: COCCNC(=O)c1cccc(-c2nc(=O)c3ccccc3s2)n1
Solution: 176 to 177 °C

Exercise: Then this compound: Cc1ccc(-c2ccc3c(c2)C=C(C(=O)NC2CCN(CC4=CCCCCCC4)CC2)CCO3)cc1
Solution: 148 to 151 °C

Exercise: Then this compound: CC(C)(CCOc1ccc(Cl)cc1)C(=O)Cn1cncn1
Solution: 188 to 190 °C

Exercise: Then this compound: Cc1cc(-c2cc(C(F)(F)F)n3nccc3n2)ccc1Cl
Solution: 114 °C
